meta.source: ChEMBL document CHEMBL4330094

- System: B16-F10
- EXPERIMENTAL_DETAILS: Effect on total cell surface glycosylation in mouse B16F10 cells assessed as inhibition of biotinylated PSA-lectin binding at 102.4 uM after 3 days by flow cytometry
- Assay type: cell-based
- TEST_PARAMETERS: b16-f10, 72 h
MEASURE_NAME: Activity

>>> result("C=CCOC(=O)N[C@H]1[C@H]([C@H](OC(C)=O)[C@@H](COC(C)=O)OC(C)=O)OC(OC(C)=O)(C(=O)OC)[C@H](F)[C@@H]1OC(C)=O (stereo partly drawn)")
"Non-Toxic"
>>> result("COC(=O)C1(OC(C)=O)O[C@@H]([C@H](OC(C)=O)[C@@H](COC(C)=O)OC(C)=O)[C@H](NC(=O)CN=[N+]=[N-])[C@@H](OC(C)=O)[C@H]1F (stereo partly drawn)")
"Non-Toxic"
>>> result("COC(=O)C1(OC(C)=O)O[C@@H]([C@H](OC(C)=O)[C@@H](COC(C)=O)OC(C)=O)[C@H](NC(=O)C(F)(F)F)[C@@H](OC(C)=O)[C@H]1F (stereo partly drawn)")
"Non-Toxic"

* * *

- System: B16-F10
- EXPERIMENTAL_DETAILS: Effect on total cell surface glycosylation in mouse B16F10 cells assessed as inhibition of biotinylated GSL1-lectin binding at 102.4 uM after 3 days by flow cytometry
- Assay type: cell-based
- TEST_PARAMETERS: b16-f10, 72 h
MEASURE_NAME: Activity

>>> result("COC(=O)C1(OC(C)=O)O[C@@H]([C@H](OC(C)=O)[C@@H](COC(C)=O)OC(C)=O)[C@H](NC(C)=O)[C@@H](OC(C)=O)[C@H]1F (stereo not given in full)")
"Non-Toxic"
>>> result("COC(=O)C1(OC(C)=O)O[C@@H]([C@H](OC(C)=O)[C@@H](COC(C)=O)OC(C)=O)[C@H](NC(=O)C(F)(F)F)[C@@H](OC(C)=O)[C@H]1F (stereo not given in full)")
"Non-Toxic"
>>> result("C#CCOC(=O)N[C@H]1[C@H]([C@H](OC(C)=O)[C@@H](COC(C)=O)OC(C)=O)OC(OC(C)=O)(C(=O)OC)[C@H](F)[C@@H]1OC(C)=O (stereo not given in full)")
"Non-Toxic"
>>> result("COC(=O)C1(OC(C)=O)O[C@@H]([C@H](OC(C)=O)[C@@H](COC(C)=O)OC(C)=O)[C@H](NC(=O)OC(C)(C)C)[C@@H](OC(C)=O)[C@H]1F (stereo not given in full)")
"Non-Toxic"
>>> result("C#CCCC(=O)N[C@H]1[C@H]([C@H](OC(C)=O)[C@@H](COC(C)=O)OC(C)=O)OC(OC(C)=O)(C(=O)OC)[C@H](F)[C@@H]1OC(C)=O (stereo not given in full)")
"Non-Toxic"

* * *

- System: B16-F10
- EXPERIMENTAL_DETAILS: Effect on total cell surface glycosylation in mouse B16F10 cells assessed as inhibition of biotinylated PSA-lectin binding at 102.4 uM after 3 days by flow cytometry
- Type: cell-based
- TEST_PARAMETERS: b16-f10, 72 h
MEASURE_NAME: Activity

>>> result("C#CCCC(=O)N[C@H]1[C@H]([C@H](OC(C)=O)[C@@H](COC(C)=O)OC(C)=O)OC(OC(C)=O)(C(=O)OC)[C@H](F)[C@@H]1OC(C)=O (stereo partly drawn)")
"Non-Toxic"
>>> result("C#CCOC(=O)N[C@H]1[C@H]([C@H](OC(C)=O)[C@@H](COC(C)=O)OC(C)=O)OC(OC(C)=O)(C(=O)OC)[C@H](F)[C@@H]1OC(C)=O (stereo partly drawn)")
"Non-Toxic"
>>> result("COC(=O)C1(OC(C)=O)O[C@@H]([C@H](OC(C)=O)[C@@H](COC(C)=O)OC(C)=O)[C@H](NC(=O)OCC(C)C)[C@@H](OC(C)=O)[C@H]1F (stereo partly drawn)")
"Non-Toxic"
>>> result("COC(=O)N[C@H]1[C@H]([C@H](OC(C)=O)[C@@H](COC(C)=O)OC(C)=O)OC(OC(C)=O)(C(=O)OC)[C@H](F)[C@@H]1OC(C)=O (stereo partly drawn)")
"Non-Toxic"
>>> result("CCOC(=O)N[C@H]1[C@H]([C@H](OC(C)=O)[C@@H](COC(C)=O)OC(C)=O)OC(OC(C)=O)(C(=O)OC)[C@H](F)[C@@H]1OC(C)=O (stereo partly drawn)")
"Non-Toxic"
>>> result("COC(=O)C1(OC(C)=O)O[C@@H]([C@H](OC(C)=O)[C@@H](COC(C)=O)OC(C)=O)[C@H](NC(=O)COC(C)=O)[C@@H](OC(C)=O)[C@H]1F (stereo partly drawn)")
"Non-Toxic"
>>> result("COC(=O)C1(OC(C)=O)O[C@@H]([C@H](OC(C)=O)[C@@H](COC(C)=O)OC(C)=O)[C@H](NC(=O)OC(C)(C)C)[C@@H](OC(C)=O)[C@H]1F (stereo partly drawn)")
"Non-Toxic"
>>> result("COC(=O)C1(OC(C)=O)O[C@@H]([C@H](OC(C)=O)[C@@H](COC(C)=O)OC(C)=O)[C@H](NC(C)=O)[C@@H](OC(C)=O)[C@H]1F (stereo partly drawn)")
"Non-Toxic"
